Molecular target: P70S6K (Homo sapiens (Human), UniProt P23443, T412E)
Sequence (P23443 1-421 T412E): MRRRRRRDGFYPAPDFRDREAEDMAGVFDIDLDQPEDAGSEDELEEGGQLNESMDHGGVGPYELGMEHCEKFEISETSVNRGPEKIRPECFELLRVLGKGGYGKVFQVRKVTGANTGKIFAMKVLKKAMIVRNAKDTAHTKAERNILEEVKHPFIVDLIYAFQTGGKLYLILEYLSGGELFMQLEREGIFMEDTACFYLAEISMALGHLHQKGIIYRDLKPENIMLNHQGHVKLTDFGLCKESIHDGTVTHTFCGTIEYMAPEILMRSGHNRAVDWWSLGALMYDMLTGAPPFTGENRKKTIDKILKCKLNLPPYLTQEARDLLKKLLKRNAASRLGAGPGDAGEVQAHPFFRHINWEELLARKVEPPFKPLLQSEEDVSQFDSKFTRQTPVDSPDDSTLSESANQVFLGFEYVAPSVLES
Assay: P70S6K Enzyme Assay
Assay type: biochemical
Details: P70S6K T412E mutant, 24 μM ATP, mobility shift (Caliper)
pIC50: −log10 of the molar value.
Record label 1 whenever pIC50 is at 6 or higher; record label 0 when lower.

Below, 3 compounds whose answers are already recorded.
Cc1cccc(C2CCNCC2Nc2ccc(C(N)=O)c3ncncc23)c1 (stereo not drawn)
label 1
NC(=O)c1ccc(N2CCN(c3cccc(C(F)(F)F)c3)CC2)c2cncnc12
label 0
NC(=O)c1ccc(N(CCc2ccccc2)[C@@H]2CCCNC2)c2cncnc12
label 0

Can NC(=O)c1ccc(NC2CNC[C@H]2c2cc(F)cc(Cl)c2)c2cccnc12 (stereo partly drawn) be said to have pIC50 at or above 6? label 1

Can NC(=O)c1ccc(NC2CNCCC2c2cccc(C(F)(F)F)c2)c2cncnc12 (stereo not drawn) be said to have pIC50 at or above 6? label 1

Can NC(=O)c1ccc(NC(=O)C2C[C@@H](c3ccccc3)CN2)c2cccnc12 (stereo partly drawn) be said to have pIC50 at or above 6? label 1
